B1: CPEB3 Ribozyme (parent)
chain: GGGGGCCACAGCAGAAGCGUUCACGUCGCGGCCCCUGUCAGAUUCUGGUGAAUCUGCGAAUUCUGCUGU

variants of: B1; test: self-cleavage, relative activity (ratio to wild type); higher = more cleavage; co-transcriptional
Classify by measured self-cleavage: 1.0 if it is equal to or exceeds 0.4, 0.0 if it is smaller.

// known answers, use as guide
GGGGGCCACAGCAGAAGCGUUCACGUCGCGGCCCCUGUCAGAUUCUGGUGAGUCUGCGAAUUAUGCUGU [A52G C63A]: 1.0
GGGGGCCACAGCGGAAGCGUUCACGUCGCGGCCCCUGUCAGAUUCUGGUGAAUCUGCGAAUUCAGCUGU [A13G U64A]: 1.0
GGGGGCCACAGCAGAUGCGUUCACGUCGCGGCCCCUGUCAGAUUAUGGUGAAUCUGCGAAUUCUGCUGU [A16U C45A]: 1.0
UGGGGCCACAGCAGAAGCGUUCACGUCGCGGCCCCUGUCAGAAUCUGGUGAAUCUGCGAAUUCUGCUGU [G1U U43A]: 0.0
GGGGGCCACAGCAGAAGCGUUCACGUCGCGGCCCCUGUCAGAUUCUGGUGACUCUGCGAAUUCUGCUGU [A52C]: 1.0

Reported self-cleavage reaches at least 0.4 for GGGGGCCACAGCAGUAGCAUUCACGUCGCGGCCCCUGUCAGAUUCUGGUGAAUCUGCGAAUUCUGCUGU [A15U G19A] ? 0.0

Now try GGGGGCCCCAGCAGAAGCGUUCACGUCGCGUCCCCUGUCAGAUUCUGGUGAAUCUGCGAAUUCUGCUGU [A8C G31U] . 1.0

// next record GGGGGCCACAGCAGAAGCGUUCGCGUCGCGGCCCCUGUCAGAUUCUGGUGACUCUGCGAAUUCUGCUGU [A23G A52C] 1.0

Now give it for GGGGGCCACAGCAGAAGCGUUCACGUCGCGGCCCCUGCGAGAUUCUGGUGAAUCUGCGAAUUCUGCUGU [U38C C39G] too. 1.0

Now try CGGGGCCACAGCAGAAGCGUUAACGUCGCGGCCCCUGUCAGAUUCUGGUGAAUCUGCGAAUUCUGCUGU [G1C C22A] . 0.0

Can you check GGGGGCCACAGCAGAAGCGUUCACGUCGCGGCCCCUGCCAGAUUCUGGUGAAUCUGCGAAUCCUGCUGU [U38C U62C] next? 1.0

Again, but for GGGUGCCACAGCAGAAGCGUUCACGUCGCGGCCCCUGUCAGAUUCUGGUGAAUCUGCGAACUCUGCUGU [G4U U61C] 0.0

And the next one, GGGGGCCACAGCAUAAGCGGUCACGUCGCGGCCCCUGUCAGAUUCUGGUGAAUCUGCGAAUUCUGCUGU [G14U U20G] ? 0.0

Queued: GGGGGCCACAGCAGAAGCGCUCACGUCGAGGCCCCUGUCAGAUUCUGGUGAAUCUGCGAAUUCUGCUGU [U20C C29A] 0.0

For GGGGGCCACAGCAGAAGCGUUCACGUCGCGGCCCCUGUCAGAUUGUGGUGAAUCUGCGACUUCUGCUGU [C45G A60C] then? 1.0

Next up: GGGGGCCACAGCAGAAGCGUUCACGUCGCGGUCCCUGUCAGCUUCUGGUGAAUCUGCGAAUUCUGCUGU [C32U A42C] 1.0

Check GGGGGCCACAGCAGAAGCGUUCACAUCGCGGCCCCUGUCAGAUUCUGGGGAAUCUGCGAAUUCUGCUGU [G25A U49G] too. 0.0

For GGGGGCCACAUCAGAAGCGUUCACGUCGCGGCCCGUGUCAGAUUCUGGUGAAUCUGCGAAUUCUGCUGU [G11U C35G] then? 0.0
